- Assay Text: Primary qHTS to identify inhibitors of SARS-CoV-2 cell entry (AID 1645846)
- Reported Conditions: SARS-CoV-2 pseudovirus cell entry assay, luminescence; at 57.1 µM (top of the series) unless noted
- From the text: Assay Provider: Wei Zheng, Ph.D. National Center for Advancing Translational Sciences, National Institute of Health, Rockville, MD. SARS-CoV-2 spike protein, within the viral envelope, mediates viral attachment and infection of host cells. The SARS-CoV-2 spike protein specifically binds to the host receptor ACE2 (Angiotensin-converting enzyme 2). […] 11. […] Read luminescence signal (Viewlux plate reader, PerkinElmer). […]
Records with an inconclusive call do not appear.
# thresholds on activity change, negative = inhibition define classes: Low: < -20%; Mid: ≥ -20% and < -10%; High: ≥ -10%

Worked set:
{"Molecule": "COc1cc2c(NC3CCN(C)CC3)nc(N3CCCN(C)CC3)nc2cc1OCCCN(C)C", "Cat": "High"}
{"Molecule": "CCCCC(CC)COC(=O)c1ccc(Nc2nc(Nc3ccc(C(=O)OCC(CC)CCCC)cc3)nc(Nc3ccc(C(=O)OCC(CC)CCCC)cc3)n2)cc1 (centres undefined)", "Cat": "Low"}
{"Molecule": "COCC1=C(C(=O)O)N2C(=O)[C@@H](NC(=O)/C(=N\\OC)c3csc(N)n3)[C@H]2SC1", "Cat": "Mid"}
{"Molecule": "O=S(=O)(O)c1ccccc1", "Cat": "Mid"}
{"Molecule": "CONC(=O)Nc1ccc(-c2sc3c(c2CN(C)C)c(=O)n(-c2ccc(OC)nn2)c(=O)n3Cc2c(F)cccc2F)cc1", "Cat": "Low"}
{"Molecule": "O=C(O)c1ccc(NC(=O)[C@H](Cc2ccc(O)cc2)NC(=O)c2ccccc2)cc1", "Cat": "Mid"}
{"Molecule": "CCCCCCCCCCCCCCCCCC(=O)OCCO", "Cat": "Mid"}
{"Molecule": "COc1cc(C)[nH]c(=O)c1CNC(=O)c1c(C)n([C@H](C)C2CCN(CC(F)(F)F)CC2)c2ccccc12", "Cat": "High"}
{"Molecule": "CC(C)Cc1ccc([C@@H](C)C(=O)NS(C)(=O)=O)cc1", "Cat": "High"}
{"Molecule": "CS(=O)(=O)N1CCC(NC(=O)c2[nH]ncc2NC(=O)c2c(Cl)cccc2Cl)CC1", "Cat": "Low"}

Which category fits this record: Cc1c(F)ccc(C(=O)Nc2cc([N+](=O)[O-])ccc2N2CCN(C)CC2)c1Cl
Mid
